assay_remarks: Selectivity index, ratio of IC50 for CHO cells to IC50 for chloroquine-sensitive Plasmodium falciparum NF54
Format: toxicity, cell-based
assay_setup: hamster, read-out: Ratio IC50
observed_property: selectivity ratio
Give the value as a plain number.

Q: What measured selectivity ratio goes with CN1C[C@H](CNC(=O)c2ccc(C#N)cc2)C[C@@H]2c3cccc4c3c(cn4C)C[C@H]21 ?
Ans: 188

Q: What measured selectivity ratio goes with CN1C[C@H](CNC(=O)c2ccc(S(C)(=O)=O)cc2)C[C@@H]2c3cccc4c3c(cn4C)C[C@H]21 ?
Ans: 16

Q: What measured selectivity ratio goes with CN1C[C@H](CNC(=O)c2ccc(Cl)c(Cl)c2)C[C@@H]2c3cccc4c3c(cn4C)C[C@H]21 ?
Ans: 1

Q: What measured selectivity ratio goes with CN1C[C@H](CNC(=O)c2cnccn2)C[C@@H]2c3cccc4c3c(cn4C)C[C@H]21 ?
Ans: 20
